target: Indoleamine 2,3-dioxygenase 1 (Homo sapiens, UniProt P14902); assay: Inhibition of recombinant human IDO1 expressed in Escherichia coli […] preincubated for 15 mins followed by substrate addition and measured after 60 mins
Sequence (P14902 whole entry): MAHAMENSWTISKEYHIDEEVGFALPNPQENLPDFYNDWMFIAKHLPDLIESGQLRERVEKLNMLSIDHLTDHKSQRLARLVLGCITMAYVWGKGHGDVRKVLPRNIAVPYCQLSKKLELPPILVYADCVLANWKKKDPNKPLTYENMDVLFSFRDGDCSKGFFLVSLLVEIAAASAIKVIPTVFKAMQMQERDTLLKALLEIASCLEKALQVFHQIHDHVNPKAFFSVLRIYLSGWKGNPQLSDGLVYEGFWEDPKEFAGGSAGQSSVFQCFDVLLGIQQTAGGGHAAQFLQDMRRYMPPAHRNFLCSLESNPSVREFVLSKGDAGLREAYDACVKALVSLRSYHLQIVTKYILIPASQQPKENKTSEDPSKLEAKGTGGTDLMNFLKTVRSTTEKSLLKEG

{"query_smiles": "CC[C@@H](C)C1=C2N=C3OC=CC=C[C@]3(OC)C(=O)N2[C@@H](Cc2ccccc2)C(=O)N1", "IC50": "14 to 87 µM"}
{"query_smiles": "C[C@@H]1C(=O)N[C@](O)(Cc2ccccc2)c2nc3c(c(=O)n21)C=CC=CO3", "IC50": "14 to 87 µM"}
{"query_smiles": "C[C@@H]1C(=O)N/C(=C\\c2ccccc2)c2nc3c(O)cccc3c(=O)n21", "IC50": "14 to 87 µM"}

---

biological target: Tyrosine-protein phosphatase non-receptor type 1 (Homo sapiens); assay: Inhibition of recombinant human PTP1B expressed in Escherichia coli […] preincubated for 15 mins followed by substrate addition and measured after 60 mins
Sequence (P18031 whole entry): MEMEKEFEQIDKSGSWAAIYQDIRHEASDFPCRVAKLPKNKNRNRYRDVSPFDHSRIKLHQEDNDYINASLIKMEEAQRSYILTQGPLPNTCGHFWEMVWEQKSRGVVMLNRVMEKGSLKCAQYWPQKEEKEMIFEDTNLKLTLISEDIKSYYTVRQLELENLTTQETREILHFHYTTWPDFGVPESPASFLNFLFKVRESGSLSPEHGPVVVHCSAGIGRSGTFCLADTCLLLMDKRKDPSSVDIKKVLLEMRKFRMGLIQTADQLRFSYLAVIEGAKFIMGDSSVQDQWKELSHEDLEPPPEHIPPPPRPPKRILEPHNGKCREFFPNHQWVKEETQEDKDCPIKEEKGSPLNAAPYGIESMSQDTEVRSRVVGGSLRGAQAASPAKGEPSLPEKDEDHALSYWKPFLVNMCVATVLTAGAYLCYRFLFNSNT
pIC50: −log10 of the molar value.
// values below are reported pIC50
parameter_measured: pIC50

{"query_smiles": "CC[C@@H](C)C1=C2N=C3OC=CC=C[C@]3(OC)C(=O)N2[C@@H](Cc2ccccc2)C(=O)N1", "parameter_measured": "pIC50", "obs_value": "4.06 to 4.85"}
{"query_smiles": "C[C@@H]1C(=O)N[C@](O)(Cc2ccccc2)c2nc3c(c(=O)n21)C=CC=CO3", "parameter_measured": "pIC50", "obs_value": "4.06 to 4.85"}
{"query_smiles": "C[C@@H]1C(=O)N/C(=C\\c2ccccc2)c2nc3c(O)cccc3c(=O)n21", "parameter_measured": "pIC50", "obs_value": "4.06 to 4.85"}

---

Biological target: Oxysterols receptor LXR-alpha (Homo sapiens, UniProt Q13133)
Sequence (Q13133 whole entry): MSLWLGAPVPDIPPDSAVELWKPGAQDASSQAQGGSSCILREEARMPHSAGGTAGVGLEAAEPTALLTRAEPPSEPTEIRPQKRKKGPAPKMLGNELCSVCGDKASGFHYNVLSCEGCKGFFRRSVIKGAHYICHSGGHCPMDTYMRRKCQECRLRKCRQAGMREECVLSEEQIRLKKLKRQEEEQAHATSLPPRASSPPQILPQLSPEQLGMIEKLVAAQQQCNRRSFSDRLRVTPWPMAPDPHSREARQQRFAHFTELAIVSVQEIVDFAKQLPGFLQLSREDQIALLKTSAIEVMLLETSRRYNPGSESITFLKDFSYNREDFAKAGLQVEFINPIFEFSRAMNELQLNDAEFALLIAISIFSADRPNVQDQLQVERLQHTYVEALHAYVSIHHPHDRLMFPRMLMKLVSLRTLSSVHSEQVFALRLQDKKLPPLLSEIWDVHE
Test: Transactivation of recombinant GAL4-fused human LXRalpha LBD (163 to 447 residues) expressed in human L02 cells measured after 24 hrs by luciferase reporter gene assay
pEC50: −log10 of the molar value.
Decision: pEC50 compared against 5; not below it gives 1, below it gives -1.

{"query_smiles": "C[C@@H]1C(=O)N/C(=C\\c2ccccc2)c2nc3c(O)cccc3c(=O)n21", "category_label": 1}
{"query_smiles": "CC[C@@H](C)C1=C2N=C3OC=CC=C[C@]3(OC)C(=O)N2[C@@H](Cc2ccccc2)C(=O)N1", "category_label": -1}
{"query_smiles": "C[C@@H]1C(=O)N[C@@](O)(Cc2ccccc2)c2nc3c(O)cccc3c(=O)n21", "category_label": 1}
{"query_smiles": "CO[C@]1(Cc2ccccc2)NC(=O)[C@@H](C)n2c1nc1c(O)cccc1c2=O", "category_label": 1}
{"query_smiles": "C[C@@H]1C(=O)N[C@](O)(Cc2ccccc2)c2nc3c(O)cccc3c(=O)n21", "category_label": 1}
{"query_smiles": "CO[C@]1(Cc2ccccc2)NC(=O)[C@@H](C)n2c1nc1c(c2=O)C=CC=CO1", "category_label": -1}
{"query_smiles": "C[C@@H]1C(=O)N/C(=C\\c2ccccc2)c2nc3c(c(=O)n21)C=CC=CO3", "category_label": -1}
{"query_smiles": "C[C@@H]1C(=O)N[C@](O)(Cc2ccccc2)c2nc3c(c(=O)n21)C=CC=CO3", "category_label": -1}
{"query_smiles": "CO[C@@]1(Cc2ccccc2)NC(=O)[C@@H](C)n2c1nc1c(c2=O)C=CC=CO1", "category_label": -1}
{"query_smiles": "C[C@@H]1C(=O)N[C@@](O)(Cc2ccccc2)c2nc3c(c(=O)n21)C=CC=CO3", "category_label": -1}
